target: Fatty acid synthase (Homo sapiens); experiment: FAS thioesterase domain inhibitors, dose response, biochemical, fluorescence intensity, OMFH substrate (AID 1347040); conditions: recombinant FAS-TE, OMFH fluorogenic substrate
Activity calls are given as the source filed them.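 The calls were made as follows: active = IC50 at or below 20 µM (some results past the limit were not filed as active); inactive = the rest.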
Possible outcomes: 1.0 (active), 0.0 (inactive)

>>> df
                                chem_smiles  classification
0  CC(C)c1nc(-c2ccc(S(=O)(=O)N3CCOCC3)cc2)cs1             1.0
1  O=C(Cc1ccc(S(=O)(=O)N2CCOCC2)s1)N1CCN(S(=O)(=O)c2ccc(F)cc2)CC1             0.0
2  CCN(CC)S(=O)(=O)c1ccc(-c2csc(C(C)(C)C)n2)cc1             1.0
3  CCN(CC)S(=O)(=O)c1ccc(-c2csc(-c3ccc(Br)cc3)n2)cc1             1.0
4  CCN(CC)S(=O)(=O)c1ccc(-c2csc(Cc3ccccc3F)n2)cc1             1.0
